Data credit: patent US8013153B2

test system: HeLa cervical adenocarcinoma; assay: Inhibition of in vitro cell proliferation (HeLa); format: cell-based, human; conditions: 14C-thymidine incorporation;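 further: cells exposed to compound for 24 h, then labelled 24 h with methyl 14C-thymidine, with uptake into DNA counted by scintillation against DMSO-only control wells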
I'd be grateful if you could share measured IC50 for these entries.

Output measured IC50 for this item: CON=Cc1c(N)ncnc1Oc1ccc(NC(=O)Nc2ccc(OC)cc2)c(Cl)c1 [Cpd 63] > 10 µM

Output measured IC50 for this item: CON=Cc1c(N)ncnc1Oc1ccc(NC(=O)Nc2ccc(OC)cc2)c(Cl)c1 [Cpd 62] > 100 µM

---

I'd be grateful if you could share measured pIC50 for these entries.
Biological target: murine Aurora-A (Mus musculus, UniProt P97477)
Construct: replaced with the full length protein encoding the murine Aurora-A; made in house; host or cells: sf9 insect cells
Sequence (P97477 1-395): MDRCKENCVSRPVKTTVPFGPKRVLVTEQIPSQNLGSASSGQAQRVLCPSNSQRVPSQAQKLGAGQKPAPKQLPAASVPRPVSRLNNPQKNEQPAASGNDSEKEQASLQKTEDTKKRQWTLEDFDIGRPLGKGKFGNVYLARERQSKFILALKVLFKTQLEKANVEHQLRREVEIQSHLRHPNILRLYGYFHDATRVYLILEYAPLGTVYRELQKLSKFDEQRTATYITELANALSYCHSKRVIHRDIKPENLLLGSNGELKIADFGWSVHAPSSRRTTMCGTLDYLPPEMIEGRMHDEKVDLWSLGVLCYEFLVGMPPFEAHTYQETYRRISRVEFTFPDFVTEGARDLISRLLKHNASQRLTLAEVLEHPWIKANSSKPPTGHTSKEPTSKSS
Test: Aurora-A Screening Assay
Assay type: biochemical
pIC50: −log10 of the molar value.

Output measured pIC50 for this item: Cc1cc2c(F)c(Oc3ncnc(N)c3C=NOCCCCN3CCCC3)ccc2[nH]1 [Cpd 25] < 5.00

Output measured pIC50 for this item: Cc1cc2c(F)c(Oc3ncnc(N)c3C=NOCCCO)ccc2[nH]1 [Cpd 29] < 5.00

Output measured pIC50 for this item: Cc1cc2c(F)c(Oc3ncnc(N)c3C=NOCCCCO)ccc2[nH]1 [Cpd 38] < 4.00

Output measured pIC50 for this item: CC(=O)N1CCN(CCCON=Cc2c(N)ncnc2Oc2ccc3[nH]c(C)cc3c2F)CC1 [Cpd 23] < 4.00

Output measured pIC50 for this item: Cc1cc2c(F)c(Oc3ncnc(N)c3C=NOCCCN3CCCCC3)ccc2[nH]1 [Cpd 20] < 4.00

Output measured pIC50 for this item: CCNC(=O)Nc1ccc(Oc2ncnc(N)c2/C=N/OC)cc1Cl [Cpd 50] < 4.00

Output measured pIC50 for this item: CON=Cc1c(N)ncnc1Oc1ccc(NC(=O)Nc2ccc(C)cc2)c(Cl)c1 [Cpd 77] < 4.00

Output measured pIC50 for this item: CNC(=O)Nc1ccc(Oc2ncnc(N)c2C=NOC)cc1 [Cpd 68] < 5.00

Output measured pIC50 for this item: CNC(=O)Cc1ccc(Oc2ncnc(N)c2C=NOC)cc1 [Cpd 96] < 5.00

Output measured pIC50 for this item: CNC(=O)Nc1ccc(Oc2ncnc(N)c2C=NOC)cc1Br [Cpd 73] < 5.00

---

molecular target: rat VEGF-R2 kinase domain (Rattus norvegicus); construct: amino acids 786-1343 of the rat VEGF-R2 kinase domain; polyhistidine (N); assay: VEGF-R2 Screening Assay; format: biochemical; conditions: > means no observed 50% inhibition at the indicated test concentration; ~ means approximately 50% inhibition at that concentration; read-out: IC50 VEGF-R2
Sequence (O08775 786-1343): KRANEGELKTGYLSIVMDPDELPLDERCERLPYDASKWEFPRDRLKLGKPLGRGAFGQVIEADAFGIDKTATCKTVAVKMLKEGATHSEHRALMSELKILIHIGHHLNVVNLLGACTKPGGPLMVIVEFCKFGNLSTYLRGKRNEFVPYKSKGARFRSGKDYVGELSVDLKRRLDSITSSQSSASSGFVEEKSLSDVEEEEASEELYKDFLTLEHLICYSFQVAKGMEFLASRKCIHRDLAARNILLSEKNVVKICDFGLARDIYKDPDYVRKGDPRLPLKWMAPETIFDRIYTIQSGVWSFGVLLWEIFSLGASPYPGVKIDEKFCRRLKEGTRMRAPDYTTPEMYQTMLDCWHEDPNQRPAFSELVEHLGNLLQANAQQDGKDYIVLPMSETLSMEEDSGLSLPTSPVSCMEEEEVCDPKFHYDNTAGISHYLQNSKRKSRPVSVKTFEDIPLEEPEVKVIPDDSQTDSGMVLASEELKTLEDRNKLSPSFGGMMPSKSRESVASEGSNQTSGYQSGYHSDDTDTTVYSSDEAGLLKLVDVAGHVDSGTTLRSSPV
IC50 strictly less than 40 nM = met. Otherwise not met.

Does "CON=Cc1c(N)ncnc1Oc1ccc(O)cc1" have IC50 strictly under 40 nM? not met

Does "CON=Cc1c(N)ncnc1Oc1ccc2c(c1)cc(C)n2C(=O)NCCCO" have IC50 strictly under 40 nM? met

Does "CON=Cc1c(N)ncnc1Oc1ccc(NC(=O)NC2CC2)c(Cl)c1" have IC50 strictly under 40 nM? met

Does "CON=Cc1c(N)ncnc1Oc1cc(OC)cc(OC)c1" have IC50 strictly under 40 nM? not met

Does "CON=Cc1c(N)ncnc1Oc1ccc(NC(=O)Nc2cc(C)on2)c(Cl)c1" have IC50 strictly under 40 nM? met

Does "CON=Cc1c(N)ncnc1Oc1ccc(NC(=O)Nc2ccc(C)cc2)c(Cl)c1" have IC50 strictly under 40 nM? met

Does "CON=Cc1c(N)ncnc1Oc1ccc(NC(=O)NCCCCN2CCCC2)c(Cl)c1" have IC50 strictly under 40 nM? not met

Does "Cc1cc2c(F)c(Oc3ncnc(N)c3C=NOCCCCO)ccc2[nH]1" have IC50 strictly under 40 nM? not met

Does "Cc1cc2c(F)c(Oc3ncnc(N)c3C=NOCCCN3CCN(S(C)(=O)=O)CC3)ccc2[nH]1" have IC50 strictly under 40 nM? not met
